Overview of reported Slopes across a group of compounds:
- Procedure text: Oxygen Radical Activity Capacity (ORAC) assay
- Cond: slope of net AUC vs concentration (2.5-50 µM), averaged, n = 3 runs, 60 min
- Description: Compound antioxidant capacities were determined using the Oxygen Radical Activity Capacity (ORAC) Assay Kit (catalog #ab233473, Abcam, Cambridge, MA, USA) according to the manufacturer’s protocol. Briefly, the Trolox standard (0.2 mM, 50:50 v/v, water: acetone) and each test compound (0.2 mM, 50:50 v/v, water: acetone) were tested at final concentrations ranging from 2.5 µM to 50 µM in the assay. […]
Lab note: jot down the number only; don't add units.

Below, 5 compounds whose answers are already recorded.
{"Compound": "Cc1c(C)c2c(c(C)c1O)CCC(C)(C(=O)Nc1nc3ccccc3o1)O2 (stereo not drawn)", "Outcome measure": "Slopes", "Reported result": 205.61}
{"Compound": "O=C(Cc1ccccc1)NCc1ccc(C(=O)NO)cc1", "Outcome measure": "Slopes", "Reported result": 137.45}
{"Compound": "Cc1c(C)c2c(c(C)c1O)CCC(C)(C(=O)NCc1ccc(C(=O)NO)cc1)O2 (stereo not drawn)", "Outcome measure": "Slopes", "Reported result": 232.42}
{"Compound": "Cc1c(C)c2c(c(C)c1O)CCC(C)(C(=O)NNC(=O)c1ccc(Cl)cc1)O2 (stereo not drawn)", "Outcome measure": "Slopes", "Reported result": 177.86}
{"Compound": "Cc1c(C)c2c(c(C)c1O)CCC(C)(C(=O)Nc1ncc[nH]1)O2 (stereo not drawn)", "Outcome measure": "Slopes", "Reported result": 151.24}

Now look at this entry.
Task: Need Slopes of Cc1c(C)c2c(c(C)c1O)CCC(C)(C(=O)NCc1ccc(S(N)(=O)=O)cc1)O2 (stereo not drawn) , thanks.
Output: 155.07

###

Target sequence: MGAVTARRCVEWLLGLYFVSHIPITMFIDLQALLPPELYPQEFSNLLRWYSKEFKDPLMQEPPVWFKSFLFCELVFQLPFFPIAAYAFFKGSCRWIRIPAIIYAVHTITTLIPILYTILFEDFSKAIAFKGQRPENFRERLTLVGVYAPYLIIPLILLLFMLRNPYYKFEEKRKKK
Overview of reported Ki across a group of compounds:

Below, 4 compounds whose answers are already recorded.
{"Compound": "COC(=O)c1ccc(CNC(=O)Cc2ccccc2)cc1", "Ki": "> 10 µM"}
{"Compound": "Cc1c(C)c2c(c(C)c1O)CCC(C)(C(=O)Nc1nc3ccccc3o1)O2 (centres unmarked)", "Ki": "> 10 µM"}
{"Compound": "Cc1c(C)c2c(c(C)c1O)CCC(C)(C(=O)Nc1cnccn1)O2 (centres unmarked)", "Ki": "5.59 µM"}
{"Compound": "NNC(=O)c1ccc(CNC(=O)Cc2ccccc2)cc1", "Ki": "> 10 µM"}

Now look at this entry.
Task: Need Ki of Cc1c(C)c2c(c(C)c1O)CCC(C)(C(=O)NCc1ccc(C(=O)NO)cc1)O2 (centres unmarked) , thanks.
Output: > 10 µM
